Source listed as patent US6313177A.

experimental.system: recombinant HIV-1 protease (Human immunodeficiency virus type 1 group M subtype B)
Construct: recombinant HIV-1 protease; purchased Bachem Bioscience
assay.comment: Fluorometric (FRET) enzymatic assay for the inhibition constant (Ki) against the HIV protease
Format: biochemical
condition.description: Table 2, tetra-substituted D-mannitol derivatives; pH 4.7, 30° C., substrate 10 μM, protease 18.3 nM
pKi: −log10 of the molar value.
Quick reference: pKi of the listed items.
value.kind: pKi

- compound: "O[C@@H]([C@H](O)[C@@H](COCC1CC1)OCc1ccccc1)[C@@H](COCC1CC1)OCc1ccccc1 [Compound 89]"
  value.kind: "pKi"
  result.qualifier: "="
  value: 4.80
- compound: "O[C@@H]([C@H](O)[C@@H](COCC=Cc1ccccc1)OCc1ccccc1)[C@@H](COCC=Cc1ccccc1)OCc1ccccc1 [Compound 94]"
  value.kind: "pKi"
  result.qualifier: "<"
  value: 6.00
- compound: "O[C@H]([C@@H](O)[C@H](COCc1cccs1)OCc1ccccc1)[C@H](COCc1cccs1)OCc1ccccc1 (stereo in doubt) [Compound 92]"
  value.kind: "pKi"
  result.qualifier: "="
  value: 6.10
- compound: "O[C@@H]([C@H](O)[C@@H](COCc1ccccc1)OCc1ccc2ccccc2c1)[C@@H](COCc1ccccc1)OCc1ccc2ccccc2c1 [Compound 80]"
  value.kind: "pKi"
  result.qualifier: "<"
  value: 5.90
- compound: "O[C@@H]([C@H](O)[C@@H](COCc1ccccc1)OCc1ccncc1)[C@@H](COCc1ccccc1)OCc1ccncc1 [Compound 86]"
  value.kind: "pKi"
  result.qualifier: "<"
  value: 4.30
- compound: "O[C@@H]([C@H](O)[C@@H](COCc1cccs1)OCc1ccc(F)cc1)[C@@H](COCc1cccs1)OCc1ccc(F)cc1 [Compound 93]"
  value.kind: "pKi"
  result.qualifier: "="
  value: 6.40
